- assay_target: Metabotropic glutamate receptor 4 (Rattus norvegicus, UniProt P31423)
- Sequence (P31423 whole entry): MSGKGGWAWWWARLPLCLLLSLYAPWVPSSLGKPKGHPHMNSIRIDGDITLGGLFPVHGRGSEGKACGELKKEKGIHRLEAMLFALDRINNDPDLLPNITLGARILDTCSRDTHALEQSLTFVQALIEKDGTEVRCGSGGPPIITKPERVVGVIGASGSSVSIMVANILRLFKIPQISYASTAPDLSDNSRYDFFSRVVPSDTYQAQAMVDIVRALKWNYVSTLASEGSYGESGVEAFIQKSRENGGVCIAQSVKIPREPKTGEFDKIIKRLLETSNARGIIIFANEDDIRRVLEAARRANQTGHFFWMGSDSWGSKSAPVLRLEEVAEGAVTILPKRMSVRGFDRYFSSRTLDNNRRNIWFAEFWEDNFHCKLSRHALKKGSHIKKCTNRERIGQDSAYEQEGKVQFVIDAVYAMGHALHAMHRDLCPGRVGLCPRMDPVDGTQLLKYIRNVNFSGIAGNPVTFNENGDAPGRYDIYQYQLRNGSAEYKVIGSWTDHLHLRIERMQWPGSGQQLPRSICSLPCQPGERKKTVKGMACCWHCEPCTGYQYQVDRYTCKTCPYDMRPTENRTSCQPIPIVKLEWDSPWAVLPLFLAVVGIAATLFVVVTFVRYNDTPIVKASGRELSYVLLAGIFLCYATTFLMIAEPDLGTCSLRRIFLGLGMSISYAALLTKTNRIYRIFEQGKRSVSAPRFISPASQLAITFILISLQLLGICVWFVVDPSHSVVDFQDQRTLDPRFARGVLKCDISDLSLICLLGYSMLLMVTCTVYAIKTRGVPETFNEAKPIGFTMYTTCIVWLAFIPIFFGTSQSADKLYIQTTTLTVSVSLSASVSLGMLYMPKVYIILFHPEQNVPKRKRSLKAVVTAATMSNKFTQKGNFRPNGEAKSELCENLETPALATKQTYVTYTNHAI
pKi: −log10 of the molar value.
readout_kind: pKi

Example entries begin here.
{"compound": "N[C@@H](C(=O)O)c1cccc(O)c1 [(R)-3-Hydroxyphenylglyci]", "pKi": "< 5.00"}
{"compound": "N[C@H](C(=O)O)c1cccc(O)c1 [(S)-3-Hydroxyphenylglycine]", "pKi": "< 5.00"}
{"compound": "N[C@@H](C(=O)O)c1ccc(C(=O)O)cc1 [(S)-4CPG]", "pKi": "< 5.00"}

Now turn to the next compound.
Please state recorded pKi (tested on Metabotropic glutamate receptor 4 (Rattus norvegicus, UniProt P31423)) of N[C@H](C(=O)O)c1ccc(C(=O)O)cc1
< 5.00
